# Test system: rice
# protocol-summary: Low temperature assay on rice seedlings
# Type: in vivo
# assay-setup: 0.01 mg/l, 2 °C, 6 days
assay-metric: Weight of root (g)
Only the number, expressed in g, is required.

{"molecule": "CC(C)[C@H](C)[C@@H](O)[C@H](O)[C@@H](C)[C@H]1CCC2C3CC(=O)C4C[C@H](O)CC[C@]4(C)C3CC[C@@]21C (stereo partly drawn)", "assay-metric": "Weight of root", "unit-info": "g", "data-value": 3}
{"molecule": "CC(C)C[C@@H](O)[C@H](O)[C@@H](C)[C@H]1CCC2C3CC(=O)C4C[C@H](O)[C@H](O)C[C@]4(C)C3CC[C@@]21C (stereo partly drawn)", "assay-metric": "Weight of root", "unit-info": "g", "data-value": 3}

Note: attention shifts to another entry.
Notebook: pull reported Weight of root for rice, entry CC(C)(O)CC[C@@H](O)[C@](C)(O)[C@H]1CC[C@@]2(O)[C@@H]3CC(=O)[C@@H]4C[C@@H](O)[C@@H](O)C[C@]4(C)[C@H]3CC[C@]12C
3.0

###

# Tested on: rice
# protocol-summary: Low temperature assay on rice seedlings
# Type: in vivo
# assay-setup: 0.001 mg/l, 5 °C, 9 days
assay-metric: Height

{"molecule": "C=C(C(C)C)[C@@H](O)[C@H](O)[C@@H](C)[C@H]1CCC2C3COC(=O)C4C[C@H](O)[C@H](O)C[C@]4(C)C3CC[C@@]21C (stereo partly drawn)", "Height": "7.8 cm"}
{"molecule": "CC(C)[C@H](C)[C@@H](O)[C@H](O)[C@@H](C)[C@H]1CCC2C3COC(=O)C4C[C@H](O)[C@H](O)C[C@]4(C)C3CC[C@@]21C (stereo partly drawn)", "Height": "7.9 cm"}

Next, consider the following molecule.
Look at this molecule and give its reported Height. CC(C)(O)CC[C@@H](O)[C@](C)(O)[C@H]1CC[C@@]2(O)[C@@H]3CC(=O)[C@@H]4C[C@@H](O)[C@@H](O)C[C@]4(C)[C@H]3CC[C@]12C
7.9 cm

###

# Tested on: rice
# protocol-summary: Low temperature assay on rice seedlings
# Assay type: in vivo
# assay-setup: 0.0001 mg/l, 5 °C, 12 days
assay-metric: Area of leaf (cm^2)
Hi! Could you send only the number? It should be in cm^2, unit omitted.

Worked cases, Area of leaf given:
{"molecule": "CC[C@@H](C(C)C)[C@@H](O)[C@H](O)[C@@H](C)[C@H]1CCC2C3COC(=O)C4C[C@H](O)[C@H](O)C[C@]4(C)C3CC[C@@]21C (stereo partly drawn)", "Area of leaf, cm^2": 14}
{"molecule": "CC(C)[C@H](C)[C@@H](O)[C@H](O)[C@@H](C)[C@H]1CCC2C3CC(=O)C4C[C@H](O)CC[C@]4(C)C3CC[C@@]21C (stereo partly drawn)", "Area of leaf, cm^2": 13.4}

Now for the molecule whose Area of leaf we want.
Which Area of leaf value is on record for CC(C)[C@H](C)[C@@H](O)[C@H](O)[C@@H](C)[C@H]1CCC2C3COC(=O)C4C[C@H](O)[C@H](O)C[C@]4(C)C3CC[C@@]21C (stereo partly drawn) ?
14

###

# System: rice
# protocol-summary: Low temperature assay on rice seedlings
# Type: in vivo
# assay-setup: 0.01 mg/l, 2 °C, 6 days
Height values for the compounds below.
Response body: numeric value in cm, unit text excluded.

Use these answered entries as a reference point.
{"compound": "CC(C)[C@H](C)[C@@H](O)[C@H](O)[C@@H](C)[C@H]1CCC2C3COC(=O)C4C[C@H](O)[C@H](O)C[C@]4(C)C3CC[C@@]21C (stereo partly drawn) [BR1]", "data-value": 7.2}
{"compound": "CC(C)[C@H](C)[C@@H](O)[C@H](O)[C@@H](C)[C@H]1CCC2C3CC(=O)C4C[C@H](O)CC[C@]4(C)C3CC[C@@]21C (stereo partly drawn) [BR4]", "data-value": 7.2}

Tell me the measured Height of CC(C)C[C@@H](O)[C@H](O)[C@@H](C)[C@H]1CCC2C3CC(=O)C4C[C@H](O)[C@H](O)C[C@]4(C)C3CC[C@@]21C (stereo partly drawn) [BR5] , please.
7.2
